target: HTRA1, Q92743; assay: holdup assay; parameters: key: below the threshold = too weak to quantify, mostly under pKd 3.1 to 4; details: plain residues with an end cap or a label only (N-terminal biotin on a linker: ado-ado)
Sequence (Q92743 360-477): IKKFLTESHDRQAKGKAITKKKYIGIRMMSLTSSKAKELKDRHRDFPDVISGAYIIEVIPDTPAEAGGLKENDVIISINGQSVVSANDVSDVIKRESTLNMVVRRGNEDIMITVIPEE
Give measured pKd for each item. Keep answers brief.
The response must contain the number and no unit.

Form field pKd, entry ELKAEDEVQI [DCHS2, Q6V1P9] : 4.25

binder MLPANYVEAI [NEB, P20929] , pKd observed: 4.03

Looking up KLQNPNQSVV [TYRP1, P17643] , I found its pKd recorded as 4.11

pKd recorded for this binder, GVHSNDHSVV [LPAR1, Q92633] , is 4.3

Form field pKd, entry EFKQTSSFLV [JAM1, Q9Y624] : 5.15

For reference, reported pKd for LVEEEEPMNL [HDAC7, Q8WUI4] stands at 4.16

Entry HDDYFYHDEL [RCN2, Q14257] — recorded pKd = 3.98

pKd reading for KPDKQEEFYA [SDC3, O75056] : 4.9

response.value for RGKNRRQSIF [CDK18, Q07002] (field: pKd) = 4

Consider VCMGDHWFDV [PRKN, O60260] . Its measured pKd is 4.96

Recorded result, AHGSTRDQSI [KCNB1, Q14721] , pKd: 3.53

The recorded pKd for entry GQNMTVSVVI [PRLHR, P49683] equals 4.82
